// data source = a melting point compilation (Tetko et al.; mined from patent text by program, amines drawn as free bases though some values may be those of a salt)

MEASURE: melting point

| COMPOUND | melting point |
| --- | --- |
| CC(C)(CO)NS(=O)(=O)c1cc(NC(=O)c2cnn3c(C(F)F)cc(-c4ccc(C(F)(F)F)cc4)nc23)c(Cl)s1 | 233 °C |

Please turn your attention to the following entry.
State the recorded melting point for this entry: COc1cc(C(=O)Nc2c(C)cccc2C)nn1C
144 °C

====

Attribute: melting point

State the recorded melting point for this entry: CCOC(=O)c1cccc(-c2ccc3cc[nH]c3c2)c1
120 to 121 °C

State the recorded melting point for this entry: CC(=O)c1ccc(-c2coc3ccc(-c4nnc(C)o4)cc23)cc1
197 to 198 °C

State the recorded melting point for this entry: Cn1nc2c(-c3ccc(Cl)cc3Cl)cccc2c1-c1nnco1
199 to 201 °C

State the recorded melting point for this entry: N#Cc1cccc(C(=O)c2ccc(S)cc2)c1
126 °C

State the recorded melting point for this entry: CCc1nc2c(cnn2CC)c(NC2CCOCC2)c1CNC(=O)c1cc(C)cc(C(=O)NCc2ccc(F)c(-c3cccc(C=O)c3)c2)c1
107 to 110 °C
